test system: OVCAR-8 ovarian; assay: NCI-60 one-dose screen, 48 h (100 = growth as untreated, 0 = no growth, -100 = all killed); conditions: 10 µM unless noted
The panel holds about 83,000 compounds, 20% with a hit somewhere; the sample as a whole holds those more often. Active and inactive are the calls of the source. Rule for the calls: active = growth percent below 10; inactive = the rest.
Reported growth values for the following compounds.

Challenge: Which value of growth has been reported for O=C(NC1CCCCC1)c1ccc(Nc2ncnc3c2cnn3-c2ccccc2)cc1 in the records?
Response given: 21.6% (inactive)

Challenge: Would you kindly repeat that for Cn1c(N2N=C(c3ccc(Cl)cc3)CC2c2ccccc2)nc(-c2ccccc2)c(C#N)c1=O (stereo not drawn) ?
Response given: 73.8% (inactive)

====

system: HCT-15 colon; assay: NCI-60 one-dose screen, 48 h (100 = growth as untreated, 0 = no growth, -100 = all killed); conditions: 10 µM unless noted
About 83,000 compounds went through this panel and 20% of them were active in at least one assay; those are over-represented in the sample as a whole.
experimental readout: growth (%)
A number alone suffices; assume %.

Solved entries (count: 2):
Challenge: Which value of growth has been reported for COc1cc(/C=C/C(=O)C(C(=O)/C=C/c2ccc(OC(=O)CCNc3nnc(C)s3)c(OC)c2)C(=O)CCNc2nnc(C)s2)ccc1OC(=O)CCNc1nnc(C)s1 in the records?
Response given: -43.2

Challenge: Would you kindly repeat that for CCN(CC)c1ccc(N=C2C=CC(=O)C=C2NC(C)=O)cc1 ?
Response given: 90.3

Okay, next one:
Challenge: Which value of growth has been reported for COc1cc(C(=O)c2cc3c(cc2C)OCO3)cc(OC)c1OC in the records?
Response given: 19.6

====

tested on: A498 renal; assay: NCI-60 one-dose screen, 48 h; conditions: 10 µM unless noted
The panel holds about 83,000 compounds, 20% with a hit somewhere; the sample as a whole holds those more often. Activity calls are given as the source filed them. The calls were made as follows: active = growth percent below 10; inactive = the rest.
Returns: one label drawn from active, inactive

Challenge: Assay result, entry Cc1cc(Cl)ccc1Nc1nc(C(F)(F)F)ccc1C(=O)N/N=C/c1ccc(Cl)cc1 — outcome?
Response given: active

Challenge: Would you kindly repeat that for Cc1cc(Br)c(C)cc1Br ?
Response given: inactive

Challenge: Would you kindly repeat that for COc1cc(NC(C)CCCN)c2nc(C)ccc2c1Oc1ccc(F)cc1 (stereo not given) ?
Response given: inactive

Challenge: Would you kindly repeat that for O=C(NC1CCCCC1)c1ccc(Nc2ncnc3c2cnn3-c2ccccc2)cc1 ?
Response given: inactive

As a next step, examine the molecule that follows.
Challenge: Assay result, entry Cc1nn(-c2nc3ccccc3s2)c(C)c1Oc1ccccc1O — outcome?
Response given: inactive

====

tested on: OVCAR-4 ovarian; experiment: NCI-60 one-dose screen, 48 h (100 = growth as untreated, 0 = no growth, -100 = all killed); conditions: 10 µM unless noted
About 83,000 compounds went through this panel and 20% of them were active in at least one assay; those are over-represented in the sample as a whole.
experimental readout: growth (%)
A number alone suffices; assume %.

Solved entries (count: 4):
Challenge: Which value of growth has been reported for O=c1sc2ncnc3ncn1c32 in the records?
Response given: 48.7

Challenge: Would you kindly repeat that for Cc1onc(-c2ccccc2Cl)c1C(=O)N[C@@H]1C(=O)N2[C@@H]1SC(C)(C)[C@@H]2C(=O)O ?
Response given: 110

Challenge: Would you kindly repeat that for CC(=O)Nc1ccc(C(=O)COc2cccc(/C=C3\CCc4ccccc4C3=O)c2)cc1 ?
Response given: 83.4

Challenge: Would you kindly repeat that for COc1ccc2c(c1)C(=Nc1cc(OC)c(OC)c(OC)c1)C(=O)N2 ?
Response given: 111

Okay, next one:
Challenge: Which value of growth has been reported for COc1cc(/C=N/NC(=O)c2ccc(C(F)(F)F)nc2Nc2cc(Cl)ccc2C)cc(OC)c1OC in the records?
Response given: 104

====

system: BT-549 breast; experiment: NCI-60 one-dose screen, 48 h; details: 10 µM unless noted
About 83,000 compounds went through this panel and 20% of them were active in at least one assay; those are over-represented in the sample as a whole. The source made the active and inactive calls. Rule for the calls: active = growth percent below 10; inactive = the rest.
Returns: one label drawn from true for active, false for inactive

Challenge: Assay result, entry OCCCc1n(Cc2ccc3ccccc3c2)c2ccccc2[n+]1Cc1ccc2ccccc2c1 — outcome?
Response given: true

As a next step, examine the molecule that follows.
Challenge: Assay result, entry COc1cccc(CCN2C(=O)CCC3=C2CCC3=O)c1 — outcome?
Response given: false

====

tested on: SF-268 CNS; test: NCI-60 one-dose screen, 48 h; settings: 10 µM unless noted
The panel holds about 83,000 compounds, 20% with a hit somewhere; the sample as a whole holds those more often. Activity calls are given as the source filed them. The calls were made as follows: active = growth percent below 10; inactive = the rest.
Returns: one label drawn from TRUE (active), FALSE (inactive)

Challenge: Assay result, entry COc1cc(/C=N/NC(=O)c2ccc(C(F)(F)F)nc2Nc2ccc(Cl)cc2C)ccc1O — outcome?
Response given: FALSE

Challenge: Would you kindly repeat that for COc1cc(-c2nc3nc4sc(C)c(C)c4c(=O)n3[nH]2)cc(OC)c1OC ?
Response given: FALSE

Challenge: Would you kindly repeat that for C=CCNC(=O)/C(=C/c1cccc([N+](=O)[O-])c1)NC(=O)c1ccccc1 ?
Response given: FALSE

Challenge: Would you kindly repeat that for Cc1cc2c(cc1C)[n+](Cc1ccc3ccccc3c1)cn2Cc1ccc2ccccc2c1 ?
Response given: TRUE

New cases:
Challenge: Assay result, entry COc1cc(/C=C/C(=O)C(C(=O)/C=C/c2ccc(OC(=O)CCNC34CC5CC(CC(C5)C3)C4)c(OC)c2)C(=O)CCNC23CC4CC(CC(C4)C2)C3)ccc1OC(=O)CCNC12CC3CC(CC(C3)C1)C2 (stereo not given) — outcome?
Response given: FALSE

Challenge: Would you kindly repeat that for CC(=O)c1ccccc1NC(=O)C(C)(c1ccccc1)c1ccccc1 ?
Response given: FALSE

Challenge: Would you kindly repeat that for COc1cc(/C=C/c2cc(/C=C/c3ccc(O)c(OC)c3)n(C(=O)c3ccc(Cl)cc3)n2)ccc1O ?
Response given: FALSE

Challenge: Would you kindly repeat that for Cc1ccc(OCC(=O)Nc2ccc(Oc3ccccc3)cc2)c([N+](=O)[O-])n1 ?
Response given: FALSE

Challenge: Would you kindly repeat that for COc1ccc(NC(=O)c2ccc(-c3ccccc3)cc2)c(C(N)=O)c1 ?
Response given: FALSE

Challenge: Would you kindly repeat that for COc1ccc(-c2nc3sc4c(c3c(=O)[nH]2)CCCCCC4)cc1 ?
Response given: FALSE

Challenge: Would you kindly repeat that for CCCCCc1c(C)[nH]c(/C=C2\N=C(c3ccc[nH]3)C=C2Oc2ccc(Cl)cc2)c1C ?
Response given: TRUE

Challenge: Would you kindly repeat that for O=C1OC(Oc2ccccc2)(c2ccccc2)c2ccccc21 (stereo not given) ?
Response given: FALSE

====

Reported growth values for the following compounds.
tested on: OVCAR-8 ovarian; test: NCI-60 one-dose screen, 48 h (100 = growth as untreated, 0 = no growth, -100 = all killed); conditions: 10 µM unless noted
The panel holds about 83,000 compounds, 20% with a hit somewhere; the sample as a whole holds those more often. Activity calls are given as the source filed them. The calls were made as follows: active = growth percent below 10; inactive = the rest.

Solved entries (count: 5):
Challenge: Which value of growth has been reported for O=C(/C=C(\Nc1ccccc1)c1ccccc1)c1cn(-c2ccc([N+](=O)[O-])cc2)nn1 in the records?
Response given: 53.5% (inactive)

Challenge: Would you kindly repeat that for C/C(=C\CCc1ccsc1)CC/C=C(\C)CCCN1CCSCC1 ?
Response given: 99.9% (inactive)

Challenge: Would you kindly repeat that for COc1cc(/C=C\C(C)=N\Nc2ccccc2)ccc1O ?
Response given: 90.5% (inactive)

Challenge: Would you kindly repeat that for COC(=O)[C@H](Cc1cn(C)cn1)NC(=O)[C@H](Cc1ccccc1)NC(=O)Nc1cc(C(F)(F)F)cc(C(F)(F)F)c1 ?
Response given: -87.9% [100 µM] (active)

Challenge: Would you kindly repeat that for CCOC(=O)CCN(c1c(Cl)ssc1=O)C(C)C ?
Response given: 97.2% (inactive)

Okay, next one:
Challenge: Which value of growth has been reported for N#CC1c2ccccc2C=CN1C(=O)N(c1ccccc1)c1ccccc1 (stereo unspecified) in the records?
Response given: 76% (inactive)

====

Reported growth values for the following compounds.
tested on: BT-549 breast; test: NCI-60 one-dose screen, 48 h (100 = growth as untreated, 0 = no growth, -100 = all killed); settings: 10 µM unless noted
Compounds without any hit were thinned out: in the full panel of roughly 83,000, 20% have a hit.
A number alone suffices; assume %.

Solved entries (count: 2):
Challenge: Which value of growth has been reported for CC12CCC3C(=CCc4cc(O)ccc43)C1CCC2=O (stereo not drawn) in the records?
Response given: 99.5

Challenge: Would you kindly repeat that for C/C(=C\CCc1ccoc1)CC/C=C(\C)CCCC1COC(=O)C1 (stereo not drawn) ?
Response given: 108

New cases:
Challenge: Which value of growth has been reported for O=C(Nc1nc2ccc(OC(F)(F)F)cc2s1)c1ccc(F)cc1 in the records?
Response given: 39.2

Challenge: Would you kindly repeat that for O=C1C=CC(=O)N1c1ccccc1N1C(=O)C=CC1=O ?
Response given: 104

Challenge: Would you kindly repeat that for Clc1ccc2[nH]cc(-c3cncn3CCc3ccccc3)c2c1 ?
Response given: 40.3

Challenge: Would you kindly repeat that for CCOC(=O)CNC(=O)C1(NC(=O)CNC(=O)OCc2ccccc2)CCCC1 ?
Response given: 98

Challenge: Would you kindly repeat that for CC1CN(CC(O)c2ccc(Br)cc2)CCO1 (stereo not drawn) ?
Response given: 106

Challenge: Would you kindly repeat that for CCOC(=O)c1cc2oc(/C=C/c3cc(=O)c4cc(Cl)ccc4o3)cc2[nH]1 ?
Response given: 53.5
